# credit: the MegaScale stability set (Tsuboyama et al. 2023)

In this section we review reported folding stability dG values for a set of variants.
B1: EHEE_rd4_0086 (parent)
chain: EIHIRTNGEEQARKVYKMLAKRNYDVKIEQHNGQWVVTAS

Variants of: B1
Test: folding stability dG (cDNA display proteolysis); higher = more stable
Conditions: PBS, room temperature
Respond with the bare value in kcal/mol.

Record excerpt, results attached:
Task: What value of folding stability dG has been reported for the following variant? E10Y
Output: 1.81

Task: What value of folding stability dG has been reported for the following variant? K21D
Output: 2.13

Task: What value of folding stability dG has been reported for the following variant? H3S
Output: 2

Task: What value of folding stability dG has been reported for the following variant? Y16G
Output: 1.88

Task: What value of folding stability dG has been reported for the following variant? I2G
Output: -0.001

Others:
Task: What value of folding stability dG has been reported for the following variant? T6V
Output: 2.55

Task: What value of folding stability dG has been reported for the following variant? V26R
Output: -0.177

Task: What value of folding stability dG has been reported for the following variant? I2D
Output: 0.01

Task: What value of folding stability dG has been reported for the following variant? R22S
Output: 1.37

Task: What value of folding stability dG has been reported for the following variant? Q30K
Output: 1.88
